# MEASUREMENT_PROTOCOL: Solubility in aqueous media (water/DMSO 95:5)
# Format: physicochemical
PARAMETER_MEASURED: Solubility in a mixture of water (95 parts by weight) and DMSO (5 parts by weight)

Worked set:
COc1cc(C(O)C(=O)NCc2cc(O)c(O)c(O)c2)ccc1O (stereo not shown); 0.5-1 % by weight
COc1cc(C(O)C(=O)NCc2ccc(O)c(O)c2)ccc1O (stereo not shown); > 10 % by weight
O=C(NCCc1ccc(O)c(O)c1)C(O)c1ccc(O)c(O)c1 (stereo not shown); > 10 % by weight
COc1cc(C(O)C(=O)NCCc2ccc(O)c(O)c2)ccc1O (stereo not shown); 5-10 % by weight
O=C(NCc1cc(O)c(O)c(O)c1)C(O)c1ccc(O)c(O)c1 (stereo not shown); 0.5-1 % by weight

Recall and state the measured Solubility in a mixture of water (95 parts by weight) and DMSO (5 parts by weight) for COc1cc(CNC(=O)C(O)c2ccc(O)c(O)c2)ccc1O (stereo not shown) .
0.05-0.1 % by weight

Query Solubility in a mixture of water (95 parts by weight) and DMSO (5 parts by weight) for O=C(NCc1ccc(O)c(O)c1)C(O)c1ccc(O)c(O)c1 (stereo not shown)
0.1-0.5 % by weight

The measured values listed here are drawn from patent US6265611A.
